These entries and their values trace back to paper PMC6650976.

Target: the molecule itself
Test: cross-linking; Mg2+-loaded proteins: 0.02% glutaric aldehyde, 16 h, 20 °C, protein 1 mg/mL, 20 mM Tricine-KOH pH 7.4, 50 mM KCl, 1 mM DTT, 1 mM MgCl2, 1 mM EGTA; SDS-PAGE, Coomassie, densitometry; self-association
measured-attribute: Dimer 50 kDa, % (%)
Express your answer in %, writing the number without its unit.

Example entries begin here.
[[record]]
protein = "recombinant wild type human recoverin (natural protein, UniProt P35243 1-200, looked up, myristoyl group at the N terminus (degree of myristoylation exceeded 89%), recoverin, human, UniProt P35243; cDNA from Y79 retinoblastoma cells, amplified with primers from the start codon to the stop codon, subcloned into pET-15b(+) by NcoI and XhoI; also called rWT; rWT recoverin; source: E. coli pET15b rec/pBB131/BL21(DE3)RILLC+, purified (phenyl-Sepharose, Toyopearl SuperQ-650M)) MGNSKSGALSKEILEELQLNTKFSEEELCSWYQSFLKDCPTGRITQQQFQSIYAKFFPDTDPKAYAQHVFRSFDSNLDGTLDFKEYVIALHMTTAGKTNQKLEWAFSLYDVDGNGTISKNEVLEIVMAIFKMITPEDVKLLPDDENTPEKRAEKIWKYFGKNDDDKLTEKEFIEGTLANKEILRLIQFEPQKVKEKMKNA"
unit_spec = "%"
reading = 31.6

[[record]]
protein = "human recoverin mutant K119A (natural protein, UniProt P35243 1-200, looked up, myristoylated (fraction of non-myristoylated forms did not exceed 16%), recoverin, human, UniProt P35243, C-terminal 'gray' cluster mutant; Parent construct as m1; source: E. coli, expressed and purified similarly to the rWT protein (phenyl-Sepharose, Toyopearl SuperQ-650M)) MGNSKSGALSKEILEELQLNTKFSEEELCSWYQSFLKDCPTGRITQQQFQSIYAKFFPDTDPKAYAQHVFRSFDSNLDGTLDFKEYVIALHMTTAGKTNQKLEWAFSLYDVDGNGTISANEVLEIVMAIFKMITPEDVKLLPDDENTPEKRAEKIWKYFGKNDDDKLTEKEFIEGTLANKEILRLIQFEPQKVKEKMKNA"
unit_spec = "%"
reading = 46.4

[[record]]
protein = "human recoverin mutant E169A (natural protein, UniProt P35243 1-200, looked up, myristoylated (fraction of non-myristoylated forms did not exceed 16%), recoverin, human, UniProt P35243, C-terminal 'black' cluster mutant; Parent construct as m1; source: E. coli, expressed and purified similarly to the rWT protein (phenyl-Sepharose, Toyopearl SuperQ-650M)) MGNSKSGALSKEILEELQLNTKFSEEELCSWYQSFLKDCPTGRITQQQFQSIYAKFFPDTDPKAYAQHVFRSFDSNLDGTLDFKEYVIALHMTTAGKTNQKLEWAFSLYDVDGNGTISKNEVLEIVMAIFKMITPEDVKLLPDDENTPEKRAEKIWKYFGKNDDDKLTAKEFIEGTLANKEILRLIQFEPQKVKEKMKNA"
unit_spec = "%"
reading = 33.7

[[record]]
protein = "human recoverin mutant F35A (natural protein, UniProt P35243 1-200, looked up, myristoylated (fraction of non-myristoylated forms did not exceed 16%), recoverin, human, UniProt P35243, N-terminal 'black' cluster mutant; Parent construct as m1; source: E. coli, expressed and purified similarly to the rWT protein (phenyl-Sepharose, Toyopearl SuperQ-650M)) MGNSKSGALSKEILEELQLNTKFSEEELCSWYQSALKDCPTGRITQQQFQSIYAKFFPDTDPKAYAQHVFRSFDSNLDGTLDFKEYVIALHMTTAGKTNQKLEWAFSLYDVDGNGTISKNEVLEIVMAIFKMITPEDVKLLPDDENTPEKRAEKIWKYFGKNDDDKLTEKEFIEGTLANKEILRLIQFEPQKVKEKMKNA"
unit_spec = "%"
reading = 30.9

[[record]]
protein = "human recoverin mutant V122A (natural protein, UniProt P35243 1-200, looked up, myristoylated (fraction of non-myristoylated forms did not exceed 16%), recoverin, human, UniProt P35243, C-terminal 'gray' cluster mutant; Parent construct as m1; source: E. coli, expressed and purified similarly to the rWT protein (phenyl-Sepharose, Toyopearl SuperQ-650M)) MGNSKSGALSKEILEELQLNTKFSEEELCSWYQSFLKDCPTGRITQQQFQSIYAKFFPDTDPKAYAQHVFRSFDSNLDGTLDFKEYVIALHMTTAGKTNQKLEWAFSLYDVDGNGTISKNEALEIVMAIFKMITPEDVKLLPDDENTPEKRAEKIWKYFGKNDDDKLTEKEFIEGTLANKEILRLIQFEPQKVKEKMKNA"
unit_spec = "%"
reading = 35.3


Dimer 50 kDa, % for human recoverin mutant Q46A (natural protein, UniProt P35243 1-200, looked up, myristoylated (fraction of non-myristoylated forms did not exceed 16%), recoverin, human, UniProt P35243, N-terminal 'gray' cluster mutant; Parent construct as m1; source: E. coli, expressed and purified similarly to the rWT protein (phenyl-Sepharose, Toyopearl SuperQ-650M)) MGNSKSGALSKEILEELQLNTKFSEEELCSWYQSFLKDCPTGRITAQQFQSIYAKFFPDTDPKAYAQHVFRSFDSNLDGTLDFKEYVIALHMTTAGKTNQKLEWAFSLYDVDGNGTISKNEVLEIVMAIFKMITPEDVKLLPDDENTPEKRAEKIWKYFGKNDDDKLTEKEFIEGTLANKEILRLIQFEPQKVKEKMKNA ? 30.2
